Reported values of IC50 for individual entries
test system: WIL2; assay: Inhibitory concentration of compound that inhibits tumor cell growth by 50% in Human B-lymphoblast (WI-L) cell line; format: functional; conditions: read-out: ID50 (the source's name)
QUANTITY NAME: IC50 (µM)

> print(dat)
                              line.notation  recorded.number
1  COc1ncnc2c(N[C@H]3O[C@H](CO)[C@@H](O)[C@H]3O)ncnc12              2.5
2  Nc1ncnc2c(N[C@H]3O[C@H](CO)[C@@H](O)[C@H]3O)ncnc12             0.25
3  Nc1ncnc2c(N[C@@H]3O[C@H](CO)[C@@H](O)[C@H]3O)ncnc12              0.2
4  COc1ncnc2c(N[C@@H]3O[C@H](CO)[C@@H](O)[C@H]3O)ncnc12             0.06

----------
system: L1210; assay: Inhibitory concentration of compound that inhibits tumor cell growth by 50% in Murine leukemia (L1210) cell line; format: functional; conditions: Mus musculus, read-out: ID50 (the source's name)
pIC50: −log10 of the molar value.
QUANTITY NAME: pIC50

> print(dat)
                              line.notation  recorded.number
1  Nc1ncnc2c(N[C@@H]3O[C@H](CO)[C@@H](O)[C@H]3O)ncnc12             6.10
2  COc1ncnc2c(N[C@@H]3O[C@H](CO)[C@@H](O)[C@H]3O)ncnc12             7.40
3  COc1ncnc2c(N[C@H]3O[C@H](CO)[C@@H](O)[C@H]3O)ncnc12             5.54
4  Nc1ncnc2c(N[C@H]3O[C@H](CO)[C@@H](O)[C@H]3O)ncnc12             6.42
